Each recorded value in this set is attributed to PubChem BioAssay (EPA / NIEHS).

# System: rat Monoamine Oxidase, MAO-A, Central (MAOAC), gene 29253
# method: NVS_ENZ_rMAOAC: NovaScreen (NVS) Enzymatic Assay for rat Monoamine Oxidase, MAO-A, Central (MAOAC) (AID 2283243);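 note: potency refers to inhibition seen as signal drop below DMSO baseline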
Calls of active or inactive are those of the source. Rule for the calls: active = hit-call score of the fitted dose curve at least 0.9, where 1 is the maximum; inconclusive = response in the unintended direction; inactive = score below 0.9.
Outcome codes: 1 for active, 0 for inactive

1) CN(C)C(=O)Nc1cccc(C(F)(F)F)c1: 1
2) CC[C@H](C)[C@H]1O[C@]2(C=C[C@@H]1C)C[C@@H]1C[C@@H](C/C=C(\C)[C@@H](O[C@H]3C[C@H](OC)[C@@H](O[C@H]4C[C@H](OC)[C@@H](NC)[C@H](C)O4)[C@H](C)O3)[C@@H](C)/C=C/C=C3\CO[C@@H]4[C@H](O)C(C)=C[C@@H](C(=O)O1)[C@]34O)O2: 0
3) C[Si](Cn1cncn1)(c1ccc(F)cc1)c1ccc(F)cc1: 1
4) CC(=NC#N)N(C)Cc1ccc(Cl)nc1: 1
5) CCC(=O)Nc1ccc(Cl)c(Cl)c1: 1

----------
# Read-out: Vascular endothelial growth factor receptor 2 (Homo sapiens) (UniProt P35968)
# method: BSK_4H_VEGFRII: BioMAP Diversity Plus: 4H Assay for Vascular endothelial growth factor receptor 2 (VEGFR2) Biomarker Activity (AID 2283031)
# assay_setup: primary human endothelial cells (HUVEC); actives raise or lower the signal
The source made the active and inactive calls. The calls were made as follows: active = hit-call score of the fitted dose curve at least 0.9, where 1 is the maximum; inactive = score below 0.9.
Outcome codes: active, inactive

1. CCc1cnc(C2=NC(C)(C(C)C)C(=O)N2)c(C(=O)O)c1 (stereo not drawn): inactive
2. CCOP(=O)(SC(C)CC)N1CCSC1=O (stereo not drawn): inactive
3. CCCCOC(=O)c1ccccc1C(=O)O: inactive
4. CCCSP(=O)(OCC)Oc1ccc(Br)cc1Cl (stereo not drawn): inactive
5. CCOP(=S)(Oc1cnc(C(C)(C)C)nc1)OC(C)C (stereo not drawn): active
6. N#CSCSC#N: inactive
7. CC(=NC#N)N(C)Cc1ccc(Cl)nc1: inactive
8. COP(=O)(OC)SCn1c(=O)oc2cc(Cl)cnc21: inactive
9. CCCCN(CC)c1c([N+](=O)[O-])cc(C(F)(F)F)cc1[N+](=O)[O-]: inactive
10. CCC(=NOC/C=C/Cl)C1=C(O)CC(C2CCOCC2)CC1=O (stereo not drawn): inactive
11. CCOP(=S)(OCC)OC(Cl)C(Cl)(Cl)Cl (stereo not drawn): inactive
12. O=C(O)c1cc(Oc2ccc(C(F)(F)F)cc2Cl)ccc1[N+](=O)[O-]: inactive
13. C#CCC1=C(C)C(OC(=O)C2C(C=C(C)C)C2(C)C)CC1=O (stereo not drawn): inactive
14. CCC(CC)Nc1c([N+](=O)[O-])cc(C)c(C)c1[N+](=O)[O-]: inactive
15. CC[C@H](C)[C@H]1O[C@]2(C=C[C@@H]1C)C[C@@H]1C[C@@H](C/C=C(\C)[C@@H](O[C@H]3C[C@H](OC)[C@@H](O[C@H]4C[C@H](OC)[C@@H](NC)[C@H](C)O4)[C@H](C)O3)[C@@H](C)/C=C/C=C3\CO[C@@H]4[C@H](O)C(C)=C[C@@H](C(=O)O1)[C@]34O)O2: inactive
16. CC(C)[C@H](C(=O)O[C@H](C#N)c1cccc(Oc2ccccc2)c1)c1ccc(Cl)cc1: inactive
17. CNC(=O)ON=C(C)SC: inactive
18. CCCOc1nn(C(=O)NS(=O)(=O)c2ccccc2C(=O)OC)c(=O)n1C: inactive
19. COP(=O)(OC)C(O)C(Cl)(Cl)Cl (stereo not drawn): inactive
20. CNC(=O)ON=C(SC)C(=O)N(C)C: inactive
21. Nc1nc(N)nc(NC2CC2)n1: inactive
22. C#CC(C)(C)NC(=O)c1cc(Cl)cc(Cl)c1: inactive
23. CCCCOC(=O)[C@@H](C)Oc1ccc(Oc2ccc(C#N)cc2F)cc1: inactive
24. Nc1c(Cl)cc([N+](=O)[O-])cc1Cl: inactive
25. CNc1cnn(-c2cccc(C(F)(F)F)c2)c(=O)c1Cl: inactive
26. CC(COc1ccc(Oc2ccccc2)cc1)Oc1ccccn1 (stereo not drawn): inactive
27. CCOP(=S)(OCC)SCCSCC: inactive
28. CCOC(=O)CC(SP(=O)(OC)OC)C(=O)OCC (stereo not drawn): inactive
29. CN(C)C(=O)Nc1cccc(C(F)(F)F)c1: inactive
30. CCOP(=O)(NC(C)C)Oc1ccc(SC)c(C)c1 (stereo not drawn): inactive
31. CNC(=O)Oc1cccc2c1OC(C)(C)O2: inactive
32. CCOP(=S)(OCC)Oc1ccc([N+](=O)[O-])cc1: inactive
33. CN1COCN(Cc2cnc(Cl)s2)C1=N[N+](=O)[O-]: inactive
34. CCNc1nc(Cl)nc(NC(C)(C)C#N)n1: inactive
35. CCC(=O)Nc1ccc(Cl)c(Cl)c1: inactive
36. CC(C)N(C(=O)SCC(Cl)=C(Cl)Cl)C(C)C: active
37. CC1=NNC(=O)N(/N=C/c2cccnc2)C1: inactive
38. COc1cc(OC)nc(Sc2cccc(Cl)c2C(=O)O)n1: inactive
39. S=C1NCCN1: inactive
40. CC(C1CC1)C(O)(Cn1cncn1)c1ccc(Cl)cc1 (stereo not drawn): inactive
41. O=c1ccc(=O)[nH][nH]1: inactive
42. COP(=O)(OC)OC(Br)C(Cl)(Cl)Br (stereo not drawn): active
43. CCc1cccc(CC)c1N(COC)C(=O)CCl: inactive
